# Read-out: Transforming Growth Factor (TGFB1), TGFB1 (gene 7040)
# protocolDetails: LTEA_HepaRG_TGFB1: Life Technologies and Expression Analysis (LTEA) Assay for Transforming Growth Factor (TGFB1) Transporter using HepaRG (AID 2283533)
# conditions: mRNA level, 48 h; actives raise or lower the signal
The source made the active and inactive calls. The calls were made as follows: active = hit-call score of the fitted dose curve at least 0.9, where 1 is the maximum; inactive = score below 0.9.
Outcomes: active, inactive

{"inputSmiles": "OC[C@H]1O[C@@](CO)(O[C@H]2O[C@H](CO)[C@@H](O)[C@H](O)[C@H]2O)[C@@H](O)[C@@H]1O", "assignedLabel": "inactive"}
{"inputSmiles": "NC(=O)N(O)[C@@H]1COc2cc(OCc3ccccc3)ccc21", "assignedLabel": "inactive"}
{"inputSmiles": "Cn1cc[nH]c1=S", "assignedLabel": "inactive"}
{"inputSmiles": "CCCOc1ccc(S(=O)(=O)N2CCN(CC)CC2)cc1-c1nc2c(CC)n(Cc3ccccn3)nc2c(=O)[nH]1", "assignedLabel": "active"}
{"inputSmiles": "CCCCCCCC/C=C\\CCCCCCCC(=O)OC[C@@H](O)[C@H]1OC[C@H](O)[C@H]1O", "assignedLabel": "inactive"}
